ASSAY NOTES: Stability of (7aS,2′S)-2-oxo-clopidogrel in plasma, screening of TCEP dosage (Example 4)
Type: in vitro ADME
RUN PARAMETERS: plasma without TCEP, No TCEP; theoretical 0.1 ng/mL; on ice; 120 min; read-out: Recovery rate
QUANTITY MEASURED: recovery at 120 min, 0.1 ng/mL (%)
# value in %; strip the unit string

Record request: recovery at 120 min, 0.1 ng/mL value, item `COC(=O)[C@H](c1ccccc1Cl)N1CC[C@@H]2SC(=O)C=C2C1` 62.2

---

ASSAY NOTES: Stability of (7aS,2′S)-2-oxo-clopidogrel in plasma, screening of TCEP dosage (Example 4)
Format: in vitro ADME
RUN PARAMETERS: plasma, TCEP 100 mg/ml; theoretical 0.1 ng/mL; room temperature; 120 min; read-out: Recovery rate
QUANTITY MEASURED: recovery at 120 min, 0.1 ng/mL
Could you give the number and then its unit, please?

Record request: recovery at 120 min, 0.1 ng/mL value, item `COC(=O)[C@H](c1ccccc1Cl)N1CC[C@@H]2SC(=O)C=C2C1` 91.5%
